# Test system: HCT116 colon cancer cells
# EXPERIMENT DESCRIPTION: cell viability study, MTS assay with a three day incubation period
# Type: cell-based
# TEST CONDITIONS: HCT116 cells, MTS assay, three day incubation; Table 1, natural products and analogs
PROPERTY NAME: GI50 (nM)

[[record]]
molecule = "C=C1C[C@](OC)([C@H](O)C(=O)N[C@@H](OC)[C@@H]2C[C@@H](O)C(C)(C)[C@@H](C[C@@H](COC)OC)O2)O[C@H](C)[C@@H]1C"
property_name = "GI50"
numeric_value = 0.6

[[record]]
molecule = "C=C(C)CC(OC)[C@H](O)C(=O)N[C@@H](OC)[C@@H]1C[C@@H](O)C(C)(C)[C@@H](C[C@H](O)[C@@H](C)[C@H]2Cc3c(C)c(O)cc(O)c3C(=O)O2)O1 (stereo partly shown)"
property_name = "GI50"
numeric_value = 0.052

[[record]]
molecule = "C=C1CC(OC)(C(O)C(=O)NC(OCC)C2CC(O)C(C)(C)C(CC(COC)OC)O2)OC(C)C1C (stereo not shown) [Compound 36b, 10-ethoxy pederin]"
property_name = "GI50"
numeric_value = 0.34

[[record]]
molecule = "C=C1C[C@](OC)([C@H](O)C(=O)N[C@@H](OC)[C@@H]2C[C@@H](OC)C(C)(C)[C@@H](C[C@@H](COC)OC)O2)O[C@H](C)[C@@H]1C"
property_name = "GI50"
numeric_value = 0.084


// provenance: patent US9364555B2
